experimental_system: human recombinant bradykinin B1 receptor (Homo sapiens)
Construct: purchased Euroscreen ES-091; host or cells: CHO cells
Sequence (P46663 1-353): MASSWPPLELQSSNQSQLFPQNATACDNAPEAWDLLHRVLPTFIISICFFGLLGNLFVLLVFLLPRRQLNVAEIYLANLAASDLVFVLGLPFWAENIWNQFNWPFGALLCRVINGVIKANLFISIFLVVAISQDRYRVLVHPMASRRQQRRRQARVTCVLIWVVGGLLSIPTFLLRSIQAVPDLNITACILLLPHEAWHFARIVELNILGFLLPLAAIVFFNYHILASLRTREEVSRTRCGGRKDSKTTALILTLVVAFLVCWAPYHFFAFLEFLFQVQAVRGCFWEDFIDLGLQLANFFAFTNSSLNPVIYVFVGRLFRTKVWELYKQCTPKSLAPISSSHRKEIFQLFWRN
assay: Human recombinant bradykinin B1 receptor binding
condition_set: reference compounds, binding test; read-out: Ki
quantity_name: Ki
Dear colleague, please send the value followed by its unit.

Record Ki for all entries; do not skip any.
1. CCCN1C(=O)[C@H](NC(=O)Nc2ccc(N3CCC(N4CCCCC4)CC3)cc2)N=C(c2ccc(C)cc2)c2ccccc21 [compound 3, reference compound]
2. CN1CCN(C(=O)C2CCN(S(=O)(=O)c3ccc(NCC(c4ccccc4)c4ccccc4)c(C(=O)N4CCOCC4)c3)CC2)CC1 [NVP-SAA164, reference compound]

Response:
13.4 nM
8 nM

====

experimental_system: human recombinant bradykinin B1 receptor (Homo sapiens, UniProt P46663)
Construct: purchased Euroscreen ES-091; host or cells: CHO cells
assay: Human recombinant bradykinin B1 receptor binding
condition_set: CHO cell membranes, [3H]-[Des-Arg10] Kallidin radioligand; read-out: B1 binding
pKi: −log10 of the molar value.
quantity_name: pKi

Look over these answered cases.
| sample_smiles | quantity_name | assay_result |
| --- | --- | --- |
| CN(C)CCN1CCN(C(=O)CNC(=O)c2ccc(S(=O)(=O)Nc3ccccc3Sc3ccccc3)cc2)CC1 | pKi | 7.00 to 7.70 |
| O=C(N[C@@H](Cc1ccc(O)cc1)C(=O)N1CCC(O)CC1)c1ccc(S(=O)(=O)Nc2ccccc2Oc2ccccc2)cc1 | pKi | > 7.70 |
| O=C(N[C@H](Cc1ccc(O)cc1)C(=O)N1CCC(O)CC1)c1ccc(S(=O)(=O)Nc2ccccc2Oc2ccccc2)cc1 | pKi | > 7.70 |
| O=C(NCC(=O)N1CCN(CCCN2CCCC2)CC1)c1ccc(S(=O)(=O)Nc2ccccc2Sc2ccccc2)cc1 | pKi | 7.00 to 7.70 |
| CN(C)CCCN1CCN(C(=O)CNC(=O)c2ccc(S(=O)(=O)Nc3ccccc3Sc3ccccc3)cc2)CC1 | pKi | 7.00 to 7.70 |
| O=C(NCC(=O)N1CCN(CCN2CCOCC2)CC1)c1ccc(S(=O)(=O)Nc2ccccc2Sc2ccccc2)cc1 | pKi | 7.00 to 7.70 |

Form: item O=C(N[C@@H](Cc1ccc(O)cc1)C(=O)N1CCC(CCN2CCCC2)CC1)c1ccc(S(=O)(=O)Nc2ccccc2Oc2ccccc2)cc1 ; test system human recombinant bradykinin B1 receptor (Homo sapiens, UniProt P46663); pKi: > 7.70

====

Provide the reported IC50 of each item.
experimental_system: recombinant human B1 receptors (Homo sapiens, UniProt P46663)
Construct: host or cells: CHO (CHO-B1)
assay: Functional assay: antagonist potency by cytosolic calcium measurement in CHO-B1 cells
Assay type: cell-based
condition_set: CHO-B1 cells, inhibition of LysDABK (EC80)-evoked [Ca2+]i elevation; read-out: B1 func.
Where a name gives a salt, the structure may show the parent alone.

Look over these answered cases.
| compound | quantity_name | assay_result |
| --- | --- | --- |
| O=C(N[C@@H](Cc1ccc(O)cc1)C(=O)N1CCC(O)CC1)c1ccc(S(=O)(=O)Nc2ccccc2Oc2ccccc2)cc1 | IC50 | < 20 nM |
| O=C(N[C@H](CO)C(=O)N1CCC(CCN2CCCC2)CC1)c1ccc(S(=O)(=O)Nc2ccccc2Oc2ccccc2)cc1 | IC50 | < 20 nM |
| CN1CCCC(CN2CCN(C(=O)CNC(=O)c3ccc(S(=O)(=O)Nc4ccccc4Sc4ccccc4)cc3)CC2)C1 (stereo not drawn) | IC50 | 20 to 100 nM |
| O=C(NCC(=O)N1CCN(CCN2CCOCC2)CC1)c1ccc(S(=O)(=O)Nc2ccccc2Sc2ccccc2)cc1 | IC50 | 20 to 100 nM |
| CN1CCC(N2CCN(C(=O)[C@H](Cc3ccc(O)cc3)NC(=O)c3ccc(S(=O)(=O)Nc4ccccc4Oc4ccccc4)cc3)CC2)CC1 | IC50 | < 20 nM |

Record IC50 for all entries; do not skip any.
1. O=C(N[C@@H](Cc1ccc(O)cc1)C(=O)N1CCC(CCO)CC1)c1ccc(S(=O)(=O)Nc2ccccc2Oc2ccccc2)cc1
2. O=C(CNC(=O)c1ccc(S(=O)(=O)Nc2ccccc2Sc2ccccc2)cc1)NCC1CCNCC1 [Example 39, hydrochloride]

Response:
1. < 20 nM
2. < 20 nM

Record IC50 for all entries; do not skip any.
1. O=C(N[C@@H](Cc1ccc(O)cc1)C(=O)N1CCC(CCN2CCCC2)CC1)c1ccc(S(=O)(=O)Nc2ccccc2Oc2ccccc2)cc1
2. C[C@@H](NC(=O)c1ccc(S(=O)(=O)Nc2ccccc2Oc2ccccc2)cc1)C(=O)N1CCC(CCN2CCCC2)CC1
3. CN(C)CCN1CCN(C(=O)CNC(=O)c2ccc(S(=O)(=O)Nc3ccccc3Sc3ccccc3)cc2)CC1
4. C[C@H](NC(=O)c1ccc(S(=O)(=O)Nc2ccccc2Oc2ccccc2)cc1)C(=O)N1CCC(CCN2CCCC2)CC1
5. O=C(N[C@@H](Cc1ccc(O)cc1)C(=O)N1CCC(N2CCCC2)CC1)c1ccc(S(=O)(=O)Nc2ccccc2Oc2ccccc2)cc1

Response:
1. < 20 nM
2. < 20 nM
3. 20 to 100 nM
4. < 20 nM
5. < 20 nM
